Target: human mAChR M4 (Homo sapiens, UniProt P08173)
Sequence (P08173 1-479): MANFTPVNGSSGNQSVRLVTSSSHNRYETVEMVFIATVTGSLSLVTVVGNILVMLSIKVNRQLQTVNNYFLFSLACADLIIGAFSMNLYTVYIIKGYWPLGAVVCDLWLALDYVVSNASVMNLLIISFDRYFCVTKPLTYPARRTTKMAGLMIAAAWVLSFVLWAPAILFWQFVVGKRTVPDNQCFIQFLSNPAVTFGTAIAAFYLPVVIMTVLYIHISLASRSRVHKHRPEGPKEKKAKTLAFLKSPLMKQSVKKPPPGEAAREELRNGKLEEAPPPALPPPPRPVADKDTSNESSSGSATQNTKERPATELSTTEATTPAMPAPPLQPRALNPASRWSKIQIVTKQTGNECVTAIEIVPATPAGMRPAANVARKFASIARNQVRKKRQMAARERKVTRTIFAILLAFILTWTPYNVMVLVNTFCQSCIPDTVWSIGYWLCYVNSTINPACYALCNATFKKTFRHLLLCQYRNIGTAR
Test: mAChR M4 cell-based functional assay (calcium flux, antagonism of EC80 acetylcholine response, M4/Gqi5/CHO-K1 cells)
Settings: decrease of the response elicited by an EC80 concentration of acetylcholine; CHO-K1 cells, Gqi5
pIC50: −log10 of the molar value.
Property label: pIC50

These recorded examples may help you get a feel for the data.
Compound | pIC50
[2H]C([2H])([C@H]1CCCCO1)N1C[C@H]2C[C@H](Nc3ccc(-c4cnccc4C(F)(F)F)nn3)C[C@H]2C1 | 9.89
[2H]C([2H])([C@@H]1CCOC(C)(C)C1)N1C[C@H]2C[C@H](Nc3ccc(-c4cccnc4C(F)(F)F)nn3)C[C@H]2C1 | 8.96
[2H]C([2H])(N1C[C@H]2C[C@H](Nc3ccc(-c4cnccc4C(F)(F)F)nn3)C[C@H]2C1)[C@]12CCC[C@H]1OCC2 (racemic) | 7.36
[2H]C([2H])(C1CCOCC1)N1C[C@H]2C[C@H](Nc3nnc(-c4cnccc4C(F)(F)F)c4sccc34)C[C@H]2C1 | 9.15

[1] [2H]C1([2H])CC(C([2H])([2H])N2C[C@H]3C[C@H](Nc4nnc(-c5cnccc5C(F)(F)F)cc4C)C[C@H]3C2)CC([2H])([2H])O1
[2] [2H]C([2H])(N1C[C@H]2C[C@H](Nc3ccc(-c4cnccc4C(F)(F)F)nn3)C[C@H]2C1)[C@@]12CCCCC[C@H]1OCC2 (racemic)
stdin: Please indicate which item has the smaller measured pIC50: 1 versus 2 Your choice should be expressed through its label.
stdout: 2
(2: 5.40, 1: 8.96)

---

Target: human mAChR M4 (Homo sapiens, UniProt P08173)
Construct: expressed in transfected cells; host or cells: CHO-K1 (ATCC), co-transfected with chimeric G protein Gqi5
Experiment: mAChR M4 cell-based functional assay (calcium flux, antagonism of EC80 acetylcholine response, M4/Gqi5/CHO-K1 cells)
Details: CHO-K1, % ACh maximum at 30 μM; read-out: Human M4 Emin
Procedure: Human or rat M4 cDNA, along with the chimeric G protein Gqi5, were transfected into Chinese hamster ovary (CHO-K1) cells purchased from the American Type Culture Collection using Lipofectamine2000. […] Calcium flux was measured using the Functional Drug Screening System (FDSS) 6000 or 7000 (Hamamatsu Corporation, Tokyo, Japan) as an increase in the fluorescent static ratio. […] Agonist activity was analyzed as a concentration-dependent increase in calcium mobilization upon compound addition. […]
Property label: remaining activity at 30 µM (%)

[I] [2H]C([2H])(C1CCOCC1)N1C[C@H]2C[C@H](Nc3nnc(-c4cnccc4C(F)(F)F)cc3C3CC3)C[C@H]2C1
[II] [2H]C([2H])(C1CCOCC1)N1C[C@H]2C[C@H](Nc3nnc(-c4cccnc4C(F)(F)F)cc3C)C[C@H]2C1
[III] [2H]C([2H])(N1C[C@H]2C[C@H](Nc3ccc(-c4cnccc4C(F)(F)F)nn3)C[C@H]2C1)C(F)(F)C1CCOCC1
stdin: Given 3 molecules, produce a descending ranking by remaining activity at 30 µM. Could you list the labels in the order requested?
stdout: III, I, II
(III: 6%, I: 4%, II: 1%)

[1] [2H]C([2H])(CC1CCOCC1)N1C[C@H]2C[C@H](Nc3ccc(-c4cnccc4C(F)(F)F)nn3)C[C@H]2C1
[2] FC(F)(F)c1ncccc1-c1ccc(N[C@H]2C[C@@H]3CN(CC4CCOCC4)C[C@@H]3C2)nn1
stdin: Among 1 and 2 , whose measured remaining activity at 30 µM is the smaller figure? Returns: label corresponding to the selected item.
stdout: 2
(2: 3%, 1: 5%)

[I] [2H]C([2H])([C@H]1CCCOC1)N1C[C@H]2C[C@H](Nc3ccc(-c4cccnc4C(F)(F)F)nn3)C[C@H]2C1
[II] [2H]C1([2H])CC(CN2C[C@H]3C[C@H](Nc4nnc(-c5cnccc5C(F)(F)F)cc4C)C[C@H]3C2)CC([2H])([2H])O1
[III] [2H]C([2H])([C@H]1CCCOC1)N1C[C@H]2C[C@H](Nc3ccc(-c4cnccc4C(F)(F)F)nn3)C[C@H]2C1
stdin: Your job: order these 3 records by remaining activity at 30 µM, ascending. Put the labels in the requested order and write them down.
stdout: I, II, III
(I: 2%, II: 3%, III: 6%)

[P] [2H]C([2H])(C1CCCCC1)N1C[C@H]2C[C@H](Nc3ccc(-c4cnccc4C(F)(F)F)nn3)C[C@H]2C1
[Q] [2H]C([2H])(C1CCOCC1(C)C)N1C[C@H]2C[C@H](Nc3ccc(-c4cnccc4C(F)(F)F)nn3)C[C@H]2C1 (stereo partly drawn)
stdin: Looking only at measured remaining activity at 30 µM, which entry is lower, P or Q ? Answer by quoting the chosen item's label.
stdout: Q

---

biological target: human mAChR M4 (Homo sapiens); assay: mAChR M4 cell-based functional assay (calcium flux, antagonism of EC80 acetylcholine response, M4/Gqi5/CHO-K1 cells); conditions: decrease of the response elicited by an EC80 concentration of acetylcholine; CHO-K1 cells, Gqi5
pIC50: −log10 of the molar value.
Property label: pIC50

Compound | pIC50
[2H]C([2H])(C1CCOC(C)(C)C1)N1C[C@H]2C[C@H](Nc3ccc(-c4cccnc4C(F)(F)F)nn3)C[C@H]2C1 (stereo partly drawn) | 8.59

[P] [2H]C([2H])([C@@H]1COCCO1)N1C[C@H]2C[C@H](Nc3ccc(-c4cnccc4C(F)(F)F)nn3)C[C@H]2C1
[Q] [2H]C([2H])(C1CCCOCC1)N1C[C@H]2C[C@H](Nc3ccc(-c4cccnc4C(F)(F)F)nn3)C[C@H]2C1 (stereo partly drawn)
[R] [2H]C([2H])([C@@H]1CCCOC1)N1C[C@H]2C[C@H](Nc3ccc(-c4cccnc4C(F)(F)F)nn3)C[C@H]2C1
[S] [2H]C([2H])(C1CCOCC1(C)C)N1C[C@H]2C[C@H](Nc3nnc(-c4cnccc4C(F)(F)F)cc3C)C[C@H]2C1 (stereo partly drawn)
stdin: Sort the 4 compounds by pIC50; largest first, smallest last. Enter labels, ranked according to the request.
stdout: Q, R, S, P

---

target: human mAChR M4 (Homo sapiens, UniProt P08173); construct: expressed in transfected cells; host or cells: CHO-K1 (ATCC), co-transfected with chimeric G protein Gqi5; assay: mAChR M4 cell-based functional assay (calcium flux, antagonism of EC80 acetylcholine response, M4/Gqi5/CHO-K1 cells); conditions: decrease of the response elicited by an EC80 concentration of acetylcholine; CHO-K1 cells, Gqi5
pIC50: −log10 of the molar value.
Property label: pIC50

# count of solved cases: 6
Compound | pIC50
[2H]C([2H])(C1CCOCC1)N1C[C@H]2C[C@H](Nc3nnc(-c4cnccc4C(F)(F)F)cc3OC)C[C@H]2C1 [Compound 15] | 8.62
[2H]C([2H])(C1CCOC(C)(C)C1)N1C[C@H]2C[C@H](Nc3ccc(-c4cnccc4C(F)(F)F)nn3)C[C@H]2C1 (single isomer, unassigned) [Compound 58] | 8.03
[2H]C([2H])(C1CCOCC1)N1C[C@H]2C[C@H](Nc3nnc(-c4cnccc4C(F)(F)F)cc3C)C[C@H]2C1 [Compound 16] | 8.82
[2H]C([2H])([C@H]1COCCO1)N1C[C@H]2C[C@H](Nc3ccc(-c4cccnc4C(F)(F)F)nn3)C[C@H]2C1 [Compound 51] | 8.85
[2H]C([2H])(C1CCOCC1)N1C[C@H]2C[C@H](Nc3ccc(-c4cnc(C(F)(F)F)cc4C(F)(F)F)nn3)C[C@H]2C1 [Compound 17] | 8.55
[2H]C([2H])([C@@H]1CCCCO1)N1C[C@H]2C[C@H](Nc3ccc(-c4cnccc4C(F)(F)F)nn3)C[C@H]2C1 [Compound 8] | 10.07

[I] [2H]C([2H])(C1CCOCC1)N1C[C@@H]2C[C@@H](Nc3ccc(-c4cccnc4C(F)(F)F)nn3)C[C@]2(C)C1 (racemic) [Compound 56]
[II] [2H]C([2H])(C1CC(C)(C)OC(C)(C)C1)N1C[C@H]2C[C@H](Nc3ccc(-c4cnccc4C(F)(F)F)nn3)C[C@H]2C1 [Compound 32]
[III] FC(F)(F)c1ccncc1-c1ccc(N[C@H]2C[C@@H]3CN(CC4CCOCC4)C[C@@H]3C2)nn1 [Compound 1]
stdin: Please list the entries, largest pIC50 first. Please respond by ranking the labels in the order requested.
stdout: III, I, II
(III: 9.55, I: 8.72, II: 7.62)
